- STUDY_TARGET: HTRA2, O43464
- Sequence (O43464 355-458): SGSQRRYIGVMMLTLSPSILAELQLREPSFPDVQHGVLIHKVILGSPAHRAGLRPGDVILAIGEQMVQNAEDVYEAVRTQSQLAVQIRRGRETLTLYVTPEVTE
- RUN_DESCRIPTION: holdup assay
- Design: key: below the threshold = too weak to quantify, mostly under pKd 3.1 to 4
- MEASUREMENT_PARAMETERS: plain residues with an end cap or a label only (N-terminal biotin on a linker: ttds)
ASSAY_ENDPOINT: pKd

>>> experimental_value("GARVSKETPL [MAPK12, P53778]")
"below the threshold"
>>> experimental_value("DLDEEEDTHL [PODXL, O00592]")
3.52
>>> experimental_value("SHSSKGETAV [FZD7, O75084]")
"below the threshold"

These entries and their values trace back to paper PMC9482650.
